- STUDY TARGET: CDK7 (Homo sapiens, UniProt P50613)
- Construct: endogenous in cells
- Sequence (P50613 whole entry): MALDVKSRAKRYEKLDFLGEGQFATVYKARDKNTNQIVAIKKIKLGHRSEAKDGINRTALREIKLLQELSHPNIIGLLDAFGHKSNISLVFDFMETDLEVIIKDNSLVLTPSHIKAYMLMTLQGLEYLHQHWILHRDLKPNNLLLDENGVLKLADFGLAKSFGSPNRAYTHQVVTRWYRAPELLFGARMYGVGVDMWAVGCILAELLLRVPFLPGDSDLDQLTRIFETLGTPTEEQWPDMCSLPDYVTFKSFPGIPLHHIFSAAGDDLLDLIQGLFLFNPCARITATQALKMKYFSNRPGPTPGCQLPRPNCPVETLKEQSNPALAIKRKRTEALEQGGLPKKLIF
- PROTOCOL DESCRIPTION: Kinobeads competition binding: CDK7
- CONDITION PARAMETERS: target CDK7
// CATDS lookup, one value per entry
In your answer, state the number alone without any accompanying words.

// solved cases for CATDS follow
SMILES TEXT: N#CC1(c2ccc(NC(=O)c3cccnc3NCc3ccncc3)cc2)CCCC1
STUDY TARGET: CDK7 (Homo sapiens, UniProt P50613)
QUANTITY KIND: CATDS
QUANTITATIVE RESULT: 0
--
SMILES TEXT: CCN1CCN(Cc2ccc(Nc3ncc(F)c(-c4cc(F)c5nc(C)n(C(C)C)c5c4)n3)nc2)CC1
STUDY TARGET: CDK7 (Homo sapiens, UniProt P50613)
QUANTITY KIND: CATDS
QUANTITATIVE RESULT: 0
--
SMILES TEXT: CCc1cc2c(cc1N1CCC(N3CCOCC3)CC1)C(C)(C)c1[nH]c3cc(C#N)ccc3c1C2=O
STUDY TARGET: CDK7 (Homo sapiens, UniProt P50613)
QUANTITY KIND: CATDS
QUANTITATIVE RESULT: 0

Would you kindly look at the next entry?
# get_value(readout='CATDS', item= "Nc1ncnc2[nH]c(-c3ccccc3)nc12" )
0.1088
